- Protocol details: Pharmacokinetics, single intravenous bolus administration
- Type: in vivo
- Experimental context: rat, plasma; male Sprague Dawley rats, single intravenous bolus 1 mg/kg, N = 3/group; formulation 10% NMP/15% EtOH/35% PEG400/40% D5W (Cpd. 57: 10% DMA/15% EtOH/35% PEG400/40% D5W)
- Procedure: Groups of Balb/c mice or Sprague-Dawley rats (n≥3 per dose group) are administered single doses of test compound. […] Following protein precipitation with acetonitrile containing an internal standard, plasma samples are analyzed using a liquid chromatography/high-resolution mass spectrometry (LC-HRMS) method to determine plasma concentrations. […]
AUC(0-inf) values, listed per item
Express it in µg·h/mL; write the number only.

Completed entries (count: 4):
COc1c(N)ncnc1Nc1cc(C)c2c(n1)C1(CCCCC1)NC2=O [Cpd. No. 72] :: 1.13
Cc1cc(Nc2ncnc(N)c2C)nc2c1C(=O)NC21CCCCC1 [Cpd. No. 71] :: 0.886
Cc1cc(Nc2ncnc(N)c2C)cc2c1C(=O)NC21CCCCC1 [Cpd. No. 55] :: 1.06
COc1c(N)ncnc1Nc1cc(C)c2c(c1)C1(CCCCC1)NC2=O [Cpd. No. 57] :: 1.72

Attention now shifts to the item below.
input: Suppose we examine the compound Cc1cc(Nc2ncnc(N)c2Cl)cc2c1C(=O)NC21CCCCC1 [Cpd. No. 58] ; what AUC(0-inf) value has been reported?
output: 0.491

---

Tmax values, listed per item
- Protocol details: Pharmacokinetics, single oral gavage administration
- Type: in vivo
- Experimental context: rat, plasma; male Sprague Dawley rats, single oral gavage 10 mg/kg, N = 3/group (Cpd. 71 N = 2); formulation 10% NMP/90% PEG400 (Cpd. 57: 10% DMA/90% PEG300)

Completed entries (count: 3):
Cc1cc(Nc2ncnc(N)c2Cl)cc2c1C(=O)NC21CCCCC1 :: 25 min
COc1c(N)ncnc1Nc1cc(C)c2c(c1)C1(CCCCC1)NC2=O :: 50 min
Cc1cc(Nc2ncnc(N)c2C)cc2c1C(=O)NC21CCCCC1 :: 240 min

input: Suppose we examine the molecule `Cc1cc(Nc2ncnc(N)c2C)nc2c1C(=O)NC21CCCCC1` ; what Tmax value has been reported?
output: 30 min

input: Suppose we examine the molecule `COc1c(N)ncnc1Nc1cc(C)c2c(n1)C1(CCCCC1)NC2=O` ; what Tmax value has been reported?
output: 40 min

---

- Protocol details: Pharmacokinetics, single intravenous bolus administration
- Format: in vivo
- Experimental context: rat, plasma; male Sprague Dawley rats, single intravenous bolus 1 mg/kg, N = 3/group; formulation 10% NMP/15% EtOH/35% PEG400/40% D5W (Cpd. 57: 10% DMA/15% EtOH/35% PEG400/40% D5W)
Measured quantity: clearance (mL/min/kg)
Express it in mL/min/kg; write the number only.

COc1c(N)ncnc1Nc1cc(C)c2c(n1)C1(CCCCC1)NC2=O [Cpd. No. 72] :: 14.8
Cc1cc(Nc2ncnc(N)c2C)nc2c1C(=O)NC21CCCCC1 [Cpd. No. 71] :: 19.1
COc1c(N)ncnc1Nc1cc(C)c2c(c1)C1(CCCCC1)NC2=O [Cpd. No. 57] :: 11.1
Cc1cc(Nc2ncnc(N)c2C)cc2c1C(=O)NC21CCCCC1 [Cpd. No. 55] :: 16.6

Attention now shifts to the item below.
input: Suppose we examine the molecule Cc1cc(Nc2ncnc(N)c2Cl)cc2c1C(=O)NC21CCCCC1 [Cpd. No. 58] ; what clearance value has been reported?
output: 35.3
